- study target: CYP2D6 (Homo sapiens, UniProt P10635)
- Sequence (P10635 whole entry): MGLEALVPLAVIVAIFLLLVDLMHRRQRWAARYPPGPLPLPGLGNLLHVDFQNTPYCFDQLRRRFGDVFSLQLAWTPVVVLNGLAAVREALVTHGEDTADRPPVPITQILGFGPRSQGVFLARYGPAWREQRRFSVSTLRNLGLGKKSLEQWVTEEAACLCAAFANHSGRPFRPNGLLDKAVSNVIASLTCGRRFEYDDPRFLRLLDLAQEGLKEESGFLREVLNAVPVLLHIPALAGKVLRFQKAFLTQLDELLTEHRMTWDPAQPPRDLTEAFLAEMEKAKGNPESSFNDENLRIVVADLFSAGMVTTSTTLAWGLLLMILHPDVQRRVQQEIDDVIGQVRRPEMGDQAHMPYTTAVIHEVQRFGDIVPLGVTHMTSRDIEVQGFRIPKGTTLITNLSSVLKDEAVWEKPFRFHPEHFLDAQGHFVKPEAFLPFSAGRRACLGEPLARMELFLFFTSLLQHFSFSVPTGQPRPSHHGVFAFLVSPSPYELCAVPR
- assay text: Cytochrome inhibition, fluorometric microtiter plate assay
- Format: in vitro ADME
- experimental parameters: CYP2D6 cytochrome inhibition (IC50, concentrations in μM for 50% inhibition), human recombinant CYP2D6, substrate AMMC; compounds of the invention
observation type: IC50

The following compounds have reported results that may help.
>  <compound>
C[C@H]1C[C@H](C)CN(CCCOc2ccc([C@H]3CC[C@H](N)CC3)cc2)C1 [Example 49]

>  <IC50>
> 10 µM

$$$$
>  <compound>
CCCC(O)(CCC)c1ccc(OCCCN2CCCCC2)cc1 [Example 7]

>  <IC50>
39 µM

$$$$
>  <compound>
CC1CCCN(CCCOc2ccc(-c3ccccc3)cc2)C1 (racemic) [Example 26]

>  <IC50>
14 µM

$$$$

Recorded IC50 (compound C(=C/c1ccc(-c2ccc(OCCCN3CCCCC3)cc2)cc1)/CN1CCCCC1 [Example 45] ): 79 µM

Recorded IC50 (compound c1cc(-c2ccc(OCCCN3CCOCC3)cc2)ccc1OCCCN1CCCCC1 [Example 36] ): > 10 µM

Recorded IC50 (compound c1cncc(-c2ccc(OCCCN3CCCCC3)cc2)c1 [Example 32] ): 7 µM

Recorded IC50 (compound Cc1cc(-c2ccc(OCCCN3CCC[C@H](C)C3)cc2)ccn1.O=C(O)C(=O)O.O=C(O)C(=O)O [Example 59] ): > 10 µM

Recorded IC50 (compound Cc1ccc(-c2ccc(OCCCN3CCCCC3)cc2)cc1.O=C(O)C(=O)O [Example 24] ): > 10 µM

====

- study target: CYP3A4 (Homo sapiens)
- assay text: Cytochrome inhibition, fluorometric microtiter plate assay
- Format: in vitro ADME
- experimental parameters: CYP3A4 cytochrome inhibition (IC50, concentrations in μM for 50% inhibition), human recombinant CYP3A4, substrate BFC; compounds of the invention
Labelling field: enter True if recorded IC50 is less than 20 µM. Enter False if it equals or exceeds that cut-off.

>  <compound>
c1cc(-c2ccc(OCCCN3CCOCC3)cc2)ccc1OCCCN1CCCCC1

>  <study target>
CYP3A4 (Homo sapiens)

>  <class>
True

$$$$
>  <compound>
C[C@@H]1C[C@@H](C)CN(CCCOc2ccc(C(C)(C)O)cc2)C1 (relative stereo)

>  <study target>
CYP3A4 (Homo sapiens)

>  <class>
False

$$$$

Query block: IC50 strictly < 20 µM for this compound? `O=C(c1ccccc1)c1ccc(OCCCN2CCCCC2)cc1`
Result block: True

Query block: IC50 strictly < 20 µM for this compound? `c1ccc(COc2ccc(OCCCN3CCCCC3)cc2)cc1`
Result block: True

Query block: IC50 strictly < 20 µM for this compound? `C[C@H]1CCCN(CCCOc2ccc(-c3cc[n+]([O-])cc3)cc2)C1`
Result block: False

Query block: IC50 strictly < 20 µM for this compound? `O=C(O)C(=O)O.O=C(O)C(=O)O.c1cc(C2=NCCCC2)ccc1OCCCN1CCCCC1`
Result block: False

====

IC50 values, listed per item
- study target: CYP2D6 (Homo sapiens, UniProt P10635)
- assay text: Cytochrome inhibition, fluorometric microtiter plate assay
- Assay type: in vitro ADME
- experimental parameters: CYP2D6 cytochrome inhibition (IC50, concentrations in μM for 50% inhibition), human recombinant CYP2D6, substrate AMMC; compounds of the invention

The following compounds have reported results that may help.
>  <compound>
[O-][n+]1ccc(-c2ccc(OCCCN3CCCCC3)cc2)cc1

>  <IC50>
64 µM

$$$$
>  <compound>
CC1CCCN(CCCOc2ccc(C(C)(C)O)cc2)C1 (racemic)

>  <IC50>
> 10 µM

$$$$
>  <compound>
CC1CCCN1CCCOc1ccc([C@H]2CC[C@H](O)CC2)cc1 (stereo partly drawn)

>  <IC50>
> 10 µM

$$$$
>  <compound>
C[C@H]1C[C@H](C)CN(CCCOc2ccc(C(=O)N3CCCC3)cc2)C1 (relative stereo)

>  <IC50>
> 10 µM

$$$$
>  <compound>
C[C@H]1C[C@H](C)CN(CCCOc2ccc(-n3cccc3)cc2)C1 (relative stereo)

>  <IC50>
3 µM

$$$$

Recorded IC50 (compound C[C@H]1CCCN(CCCOc2ccc(C3CCC(C)(O)CC3)cc2)C1 (stereo partly drawn) ): > 10 µM

Recorded IC50 (compound `C(=C\c1ccc(OCCCN2CCCCC2)cc1)/c1ccccc1` ): 5 µM

Recorded IC50 (compound `c1cc([C@H]2CC[C@H](N3CCCC3)CC2)ccc1OCCCN1CCCCC1` ): > 10 µM

Recorded IC50 (compound `O=C(c1ccccc1)c1ccc(OCCCN2CCCCC2)cc1` ): 32 µM

Recorded IC50 (compound `CN1CCN(c2ccc(-c3ccc(OCCCN4CCCCC4)cc3)cc2)CC1` ): > 100 µM

Recorded IC50 (compound `c1ccc(COc2ccc(OCCCN3CCCCC3)cc2)cc1` ): 23 µM

====

- study target: CYP3A4 (Homo sapiens, UniProt P08684)
- Sequence (P08684 whole entry): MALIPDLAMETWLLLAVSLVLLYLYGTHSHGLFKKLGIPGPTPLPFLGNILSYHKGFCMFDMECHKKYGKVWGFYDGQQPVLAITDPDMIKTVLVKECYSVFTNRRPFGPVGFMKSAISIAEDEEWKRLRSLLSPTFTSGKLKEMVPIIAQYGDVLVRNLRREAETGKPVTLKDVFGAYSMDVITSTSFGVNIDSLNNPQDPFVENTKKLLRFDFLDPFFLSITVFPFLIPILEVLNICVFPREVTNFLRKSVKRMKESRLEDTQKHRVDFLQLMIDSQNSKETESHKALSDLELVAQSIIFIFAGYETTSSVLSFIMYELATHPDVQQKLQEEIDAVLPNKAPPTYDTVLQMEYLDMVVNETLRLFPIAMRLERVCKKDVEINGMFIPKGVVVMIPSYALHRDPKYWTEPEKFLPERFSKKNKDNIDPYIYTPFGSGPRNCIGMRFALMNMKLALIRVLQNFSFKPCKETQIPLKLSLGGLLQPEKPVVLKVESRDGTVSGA
- assay text: Cytochrome inhibition, fluorometric microtiter plate assay
- Type: in vitro ADME
- experimental parameters: CYP3A4 cytochrome inhibition (IC50, concentrations in μM for 50% inhibition), human recombinant CYP3A4, substrate BFC; compounds of the invention
observation type: log10 IC50 (log10 of the value in µM)
Field: value | Transform: log10 | Quantity: IC50 | Unit: µM

>  <molecule>
OC1(c2ccc(OCCCN3CCCCC3)cc2)CCCC1

>  <study target>
CYP3A4 (Homo sapiens, UniProt P08684)

>  <readout value>
1.30

$$$$
>  <molecule>
C(=C/c1ccc(-c2ccc(OCCCN3CCCCC3)cc2)cc1)/CN1CCCCC1

>  <study target>
CYP3A4 (Homo sapiens, UniProt P08684)

>  <readout value>
0.70

$$$$
>  <molecule>
c1cc(-c2ccc(OCCCN3CCCCC3)cc2)ccc1CCCN1CCCCC1

>  <study target>
CYP3A4 (Homo sapiens, UniProt P08684)

>  <readout value>
0.30

$$$$

Recorded log10 IC50 (molecule C[C@@H]1C[C@@H](C)CN(CCCOc2ccc(-c3ccncc3)cc2)C1 (relative stereo) ): 0.60

Recorded log10 IC50 (molecule `[O-][n+]1ccc(-c2ccc(OCCCN3CCCCC3)cc2)cc1` ): 1.76

Recorded log10 IC50 (molecule C[C@@H]1C[C@@H](C)CN(CCCOc2ccc(-c3ccccc3)cc2)C1 (relative stereo) ): 0.48

Recorded log10 IC50 (molecule C[C@H]1C[C@H](C)CN(CCCOc2ccc(-n3cccc3)cc2)C1 (relative stereo) ): 0.85

Recorded log10 IC50 (molecule `C(=C\c1ccc(OCCCN2CCCCC2)cc1)/c1ccccc1` ): 1.30

Recorded log10 IC50 (molecule `CN(C)[C@H]1CC[C@@H](Cc2ccc(OCCCN3CCCCC3)cc2)CC1` ): 1.57

Recorded log10 IC50 (molecule `c1cc(-c2ccc(OCCCN3CCCCC3)cc2)ccc1OCCCN1CCCCC1` ): 0.70

Recorded log10 IC50 (molecule `c1cc(-c2ccc(OCCCN3CCCCC3)cc2)ccn1` ): 1.04

Recorded log10 IC50 (molecule `C[C@H]1CCCN(CCCOc2ccc(-c3ccncc3)cc2)C1` ): 1.04

Recorded log10 IC50 (molecule `c1cc(-c2ccc(OCCCN3CCCC3)cc2)ccc1OCCCN1CCCCC1` ): 1.18

Recorded log10 IC50 (molecule `C[C@H]1C[C@H](C)CN(CCCOc2ccc([C@H]3CC[C@H](N)CC3)cc2)C1` ): 1.43

Recorded log10 IC50 (molecule `C[C@H]1C[C@H](C)CN(CCCOc2ccc([C@H]3CC[C@H](N(C)C)CC3)cc2)C1` ): 1.45

====

- study target: UniProt:P10635
- assay text: Cytochrome inhibition, fluorometric microtiter plate assay
- Assay type: in vitro ADME
- experimental parameters: human, recombinant human CYP2D6, probe AMMC, CYP2D6 cytochrome inhibition (IC50, concentrations in μM for 50% inhibition), human recombinant CYP2D6, substrate AMMC; compounds of the invention
observation type: IC50 (µM)
Value expressed in µM; do not type the unit.

Recorded IC50 (molecule Cc1ccccc1-c1ccc(OCCCN2CCCCC2)cc1 [Example 28] ): 10

====

- study target: CYP3A4 (Homo sapiens, UniProt P08684)
- assay text: Cytochrome inhibition, fluorometric microtiter plate assay
- Type: in vitro ADME
- experimental parameters: CYP3A4 cytochrome inhibition (IC50, concentrations in μM for 50% inhibition), human recombinant CYP3A4, substrate BFC; compounds of the invention
IC50 values, listed per item
Value expressed in µM; do not type the unit.

>  <molecule>
C[C@H]1C[C@H](C)CN(CCCOc2ccc(C(=O)N(C)C)cc2)C1 (relative stereo)

>  <observation type>
IC50

>  <readout value>
32

$$$$

Recorded IC50 (molecule C[C@@H]1C[C@@H](C)CN(CCCOc2ccc(C3=NCCCC3)cc2)C1 (relative stereo) ): 22

Data provenance: patent US8076329B2
